Measured values drawn from the kinase profiling compilation of Christmann-Franck et al. (2016) for this set.

Give kinase still bound, per cent of control for every item shown.
biological target: CASK (human) (UniProt O14936); assay: KINOMEscan competition binding; conditions: compound 10.0 µM
Sequence (O14936 whole entry, looked up): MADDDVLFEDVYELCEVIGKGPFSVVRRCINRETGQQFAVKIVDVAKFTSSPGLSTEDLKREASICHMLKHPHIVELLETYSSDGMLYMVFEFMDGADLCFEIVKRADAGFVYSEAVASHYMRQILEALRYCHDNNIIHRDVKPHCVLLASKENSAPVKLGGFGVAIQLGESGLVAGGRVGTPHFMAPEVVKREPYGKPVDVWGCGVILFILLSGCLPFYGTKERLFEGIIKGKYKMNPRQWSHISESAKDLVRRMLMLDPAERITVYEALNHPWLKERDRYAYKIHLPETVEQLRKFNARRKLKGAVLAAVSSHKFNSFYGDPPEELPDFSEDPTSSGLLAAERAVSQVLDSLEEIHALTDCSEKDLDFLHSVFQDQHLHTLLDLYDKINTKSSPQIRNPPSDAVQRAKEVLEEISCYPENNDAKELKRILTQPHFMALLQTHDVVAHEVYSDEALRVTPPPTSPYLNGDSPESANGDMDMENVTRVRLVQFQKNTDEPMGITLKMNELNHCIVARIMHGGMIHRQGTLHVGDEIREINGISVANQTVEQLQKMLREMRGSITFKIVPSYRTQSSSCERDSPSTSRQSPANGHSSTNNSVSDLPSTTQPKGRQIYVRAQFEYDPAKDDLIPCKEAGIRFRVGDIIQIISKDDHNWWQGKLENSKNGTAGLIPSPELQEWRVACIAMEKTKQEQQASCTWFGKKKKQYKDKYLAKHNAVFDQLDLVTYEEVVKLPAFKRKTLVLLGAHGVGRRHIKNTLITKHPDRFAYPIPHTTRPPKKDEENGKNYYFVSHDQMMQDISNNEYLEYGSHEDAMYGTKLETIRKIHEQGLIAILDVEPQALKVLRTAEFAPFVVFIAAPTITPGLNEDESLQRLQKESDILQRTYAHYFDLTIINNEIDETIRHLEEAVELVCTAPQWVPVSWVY
Give bare numbers, in %.

compound	measure.name	observed.measurement
COc1cc2ncnc(Nc3cccc(Cl)c3)c2cc1OC	kinase still bound, per cent of control	67
CCN(CCO)CCCOc1ccc2c(Nc3cc(CC(=O)Nc4cccc(F)c4)[nH]n3)ncnc2c1	kinase still bound, per cent of control	88
N#C/C(=C1/Nc2ccccc2S1)c1ccnc(NCCc2cccnc2)n1	kinase still bound, per cent of control	100
O=c1[nH]c2ccccc2n1C1CCN(Cc2ccc(-c3nc4cc5[nH]cnc5cc4nc3-c3ccccc3)cc2)CC1	kinase still bound, per cent of control	79

I'm hoping you can list kinase still bound, per cent of control for every compound here, please.
1. CNC(=O)Nc1ccc(-c2nc(N3CC4CCC(C3)O4)c3cnn(C4CCC5(CC4)OCCO5)c3n2)cc1
2. CCCS(=O)(=O)Nc1ccc(F)c(C(=O)c2c[nH]c3ncc(Cl)cc23)c1F
3. COc1cc2c(Nc3ccc(NC(=O)c4ccccc4)cc3)ncnc2cc1OCCCN1CCOCC1
4. CC(=O)c1c(C)c2cnc(Nc3ccc(N4CCNCC4)cn3)nc2n(C2CCCC2)c1=O

# output
[64, 51, 100, 60]

Dear colleague, could you please provide kinase still bound, per cent of control for the compounds listed below?
1. C=CC(=O)Nc1ccc(C(=O)c2sc(Nc3ccc(N4CCN(C)CC4)cc3OC)nc2N)cc1
2. CC1=C(C(=O)Nc2cc3cn[nH]c3cc2F)C(c2ccc(C(F)(F)F)cc2)CC(=O)N1 (stereo not drawn)
3. N#Cc1cc(-c2ccnc(Nc3ccc(-n4cnc(-c5cccnc5)n4)cc3)n2)cc(N2CCOCC2)c1
4. CCc1nc(-c2cccc(C)c2)c(-c2ccnc(NC(=O)c3ccccc3)c2)s1
5. CCN1CCN(Cc2ccc(NC(=O)c3ccc(C)c(/C=C/c4cnc5[nH]ccc5c4OC)c3)cc2C(F)(F)F)CC1

# output
[100, 88, 78, 100, 77]

* * *

system: PIK3CA (human), P42336 [H1047L]; assay: KINOMEscan competition binding; details: compound 10.0 µM
Sequence (P42336 whole entry H1047L, looked up): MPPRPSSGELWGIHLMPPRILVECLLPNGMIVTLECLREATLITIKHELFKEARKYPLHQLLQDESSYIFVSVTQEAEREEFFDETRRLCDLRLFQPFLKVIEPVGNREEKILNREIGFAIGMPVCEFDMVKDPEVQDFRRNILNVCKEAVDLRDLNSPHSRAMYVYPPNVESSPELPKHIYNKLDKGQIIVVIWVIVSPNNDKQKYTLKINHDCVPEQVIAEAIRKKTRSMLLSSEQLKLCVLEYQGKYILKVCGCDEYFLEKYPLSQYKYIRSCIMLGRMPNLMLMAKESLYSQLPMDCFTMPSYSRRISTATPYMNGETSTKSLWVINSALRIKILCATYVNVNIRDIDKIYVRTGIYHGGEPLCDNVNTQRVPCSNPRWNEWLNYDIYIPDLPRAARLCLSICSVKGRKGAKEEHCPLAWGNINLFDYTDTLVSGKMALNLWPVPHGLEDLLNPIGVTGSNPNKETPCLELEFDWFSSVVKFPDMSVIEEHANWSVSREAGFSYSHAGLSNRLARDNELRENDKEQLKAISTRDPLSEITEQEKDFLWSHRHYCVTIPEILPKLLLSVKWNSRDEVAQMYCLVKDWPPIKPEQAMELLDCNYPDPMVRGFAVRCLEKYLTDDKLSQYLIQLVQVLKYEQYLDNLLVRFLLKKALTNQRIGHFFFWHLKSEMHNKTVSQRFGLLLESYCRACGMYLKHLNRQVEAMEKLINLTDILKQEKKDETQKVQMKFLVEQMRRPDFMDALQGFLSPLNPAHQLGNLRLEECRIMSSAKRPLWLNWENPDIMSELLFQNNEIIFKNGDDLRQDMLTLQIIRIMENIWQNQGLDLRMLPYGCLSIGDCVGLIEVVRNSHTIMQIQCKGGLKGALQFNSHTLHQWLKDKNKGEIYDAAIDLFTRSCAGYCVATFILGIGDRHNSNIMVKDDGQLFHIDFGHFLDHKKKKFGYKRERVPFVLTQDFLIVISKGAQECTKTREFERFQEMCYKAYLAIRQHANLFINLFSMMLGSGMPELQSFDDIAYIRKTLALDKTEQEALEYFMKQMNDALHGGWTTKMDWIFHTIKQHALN
Threshold-based label: kinase still bound, per cent of control under 5% gives true, kinase still bound, per cent of control not under 5% gives false.

compound	target.under.test	class.name
C=CC(=O)Nc1cccc(Nc2nc(N[C@H]3CC[C@H](N(C)C)CC3)nc3c2ncn3C(C)C)c1	PIK3CA (human), P42336 [H1047L]	false
O=C(Nc1cccc(Nc2ncc(Br)c(NCCc3cnc[nH]3)n2)c1)N1CCCC1	PIK3CA (human), P42336 [H1047L]	false
O=C1Nc2ccc(I)cc2/C1=C/c1cc(Br)c(O)c(Br)c1	PIK3CA (human), P42336 [H1047L]	false
Cn1c(=O)n(-c2ccc(C(C)(C)C#N)cc2)c2c3cc(-c4cnc5ccccc5c4)ccc3ncc21	PIK3CA (human), P42336 [H1047L]	true
CCc1nc(-c2cccc(C)c2)c(-c2ccnc(NC(=O)c3ccccc3)c2)s1	PIK3CA (human), P42336 [H1047L]	false
CCN(CC)CCCCNc1ncc2c(n1)N(C)C(=O)N(c1c(Cl)c(OC)cc(OC)c1Cl)C2	PIK3CA (human), P42336 [H1047L]	false
CCN1CCN(Cc2ccc(Nc3ncc4c(n3)N(C)c3ccccc3C(=O)N4C)cc2C(F)(F)F)CC1	PIK3CA (human), P42336 [H1047L]	true
Nc1ccc(-c2ccc3ncc4ccc(=O)n(-c5cccc(C(F)(F)F)c5)c4c3c2)cn1	PIK3CA (human), P42336 [H1047L]	true

Kindly consider the entry below.
# input Please state whether kinase still bound, per cent of control is below 5% for CC1=C(C(=O)Nc2cc3cn[nH]c3cc2F)C(c2ccc(C(F)(F)F)cc2)CC(=O)N1 (centres undefined)
# output false

* * *

Consider the following molecules; for each one, report its kinase still bound, per cent of control.
biological target: UniProt P29376; test: KINOMEscan competition binding; conditions: compound 10.0 µM
Sequence (P29376 whole entry, looked up): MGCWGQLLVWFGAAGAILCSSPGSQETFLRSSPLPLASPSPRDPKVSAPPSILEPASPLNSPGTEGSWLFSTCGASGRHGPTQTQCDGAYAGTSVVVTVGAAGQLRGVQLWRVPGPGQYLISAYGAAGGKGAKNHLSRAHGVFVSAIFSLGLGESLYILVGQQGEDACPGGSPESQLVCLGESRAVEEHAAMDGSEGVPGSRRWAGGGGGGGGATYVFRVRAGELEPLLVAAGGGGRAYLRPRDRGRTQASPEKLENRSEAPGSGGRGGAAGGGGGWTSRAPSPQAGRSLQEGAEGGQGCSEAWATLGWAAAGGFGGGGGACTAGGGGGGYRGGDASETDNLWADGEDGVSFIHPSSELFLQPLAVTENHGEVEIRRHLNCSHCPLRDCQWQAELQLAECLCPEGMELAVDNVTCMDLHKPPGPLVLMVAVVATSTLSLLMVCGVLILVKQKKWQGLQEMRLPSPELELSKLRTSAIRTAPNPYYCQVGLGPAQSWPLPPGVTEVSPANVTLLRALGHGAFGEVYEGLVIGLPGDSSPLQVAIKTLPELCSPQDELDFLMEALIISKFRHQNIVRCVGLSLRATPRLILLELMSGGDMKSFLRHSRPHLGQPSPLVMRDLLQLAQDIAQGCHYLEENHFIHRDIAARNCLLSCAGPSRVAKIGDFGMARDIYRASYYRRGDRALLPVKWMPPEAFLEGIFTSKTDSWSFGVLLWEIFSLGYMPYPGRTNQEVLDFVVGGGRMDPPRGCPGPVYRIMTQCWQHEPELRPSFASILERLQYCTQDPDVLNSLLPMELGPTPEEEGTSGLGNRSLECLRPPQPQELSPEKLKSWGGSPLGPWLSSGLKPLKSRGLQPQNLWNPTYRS
Respond with a number, then the unit of measure.

Answered cases to consult:
molecule	kinase still bound, per cent of control
CCN1CCN(Cc2ccc(NC(=O)c3ccc(C)c(/C=C/c4cnc5[nH]ccc5c4OC)c3)cc2C(F)(F)F)CC1	62%
COc1cc2ncnc(Nc3cccc(Cl)c3)c2cc1OC	48%
COc1cc2c(Nc3ccc(NC(=O)c4ccccc4)cc3)ncnc2cc1OCCCN1CCOCC1	6.3%
CCCS(=O)(=O)Nc1ccc(F)c(C(=O)c2c[nH]c3ncc(Cl)cc23)c1F	34%

Each molecule below has a recorded value; state its kinase still bound, per cent of control.
1. CC1=C(C(=O)Nc2cc3cn[nH]c3cc2F)C(c2ccc(C(F)(F)F)cc2)CC(=O)N1 (configuration not stated)
2. Cc1cn(-c2cc(C(=O)Nc3ccc(C)c(NC(=O)c4ccno4)c3)cc(C(F)(F)F)c2)cn1

# output
["100%", "100%"]

* * *

target: HIPK4 (human); experiment: KINOMEscan competition binding; conditions: compound 10.0 µM
Threshold 40%: kinase still bound, per cent of control strictly smaller gives True, otherwise False.

compound	class.name
CNC(=O)Nc1ccc(-c2nc(N3CC4CCC(C3)O4)c3cnn(C4CCC5(CC4)OCCO5)c3n2)cc1	False
CCCS(=O)(=O)Nc1ccc(F)c(C(=O)c2c[nH]c3ncc(Cl)cc23)c1F	True
COc1cc2c(Nc3ccc(NC(=O)c4ccccc4)cc3)ncnc2cc1OCCCN1CCOCC1	True
Cc1cn(-c2cc(C(=O)Nc3ccc(C)c(NC(=O)c4ccno4)c3)cc(C(F)(F)F)c2)cn1	False
COc1cc2ncnc(Nc3cccc(Cl)c3)c2cc1OC	True

# input kinase still bound, per cent of control under 40%? Item: "CCN(CCO)CCCOc1ccc2c(Nc3cc(CC(=O)Nc4cccc(F)c4)[nH]n3)ncnc2c1"
# output True

# input Regarding "CCN1CCN(Cc2ccc(NC(=O)c3ccc(C)c(/C=C/c4cnc5[nH]ccc5c4OC)c3)cc2C(F)(F)F)CC1" , kindly confirm whether its kinase still bound, per cent of control is beneath 40%.
# output True

# input Quick check: kinase still bound, per cent of control of "N#C/C(=C1/Nc2ccccc2S1)c1ccnc(NCCc2cccnc2)n1" under 40%?
# output False

# input Consider "CC(=O)c1c(C)c2cnc(Nc3ccc(N4CCNCC4)cn3)nc2n(C2CCCC2)c1=O" . Does its kinase still bound, per cent of control lie strictly below 40%?
# output True

# input Here's an entry: "CCOc1cc(N2CCC(O)CC2)ccc1Nc1ncc2c(n1)N(C)c1ccccc1C(=O)N2C" . Is its kinase still bound, per cent of control below 40%?
# output False

# input Dear colleague, could you confirm whether kinase still bound, per cent of control of "N#Cc1cc(-c2ccnc(Nc3ccc(-n4cnc(-c5cccnc5)n4)cc3)n2)cc(N2CCOCC2)c1" falls below 40%? Thanks.
# output True

# input Confirm or reject: kinase still bound, per cent of control of "C=CC(=O)Nc1ccc(C(=O)c2sc(Nc3ccc(N4CCN(C)CC4)cc3OC)nc2N)cc1" lies strictly below 40%
# output True

# input Field: below-cutoff. Rule: recorded kinase still bound, per cent of control strictly less than 40%. Subject: "O=c1[nH]c2ccccc2n1C1CCN(Cc2ccc(-c3nc4cc5[nH]cnc5cc4nc3-c3ccccc3)cc2)CC1"
# output False

# input Lab log: compare recorded kinase still bound, per cent of control with 40%; is it strictly lower for "CCc1nc(-c2cccc(C)c2)c(-c2ccnc(NC(=O)c3ccccc3)c2)s1" ?
# output False

# input Please check: kinase still bound, per cent of control for CC1=C(C(=O)Nc2cc3cn[nH]c3cc2F)C(c2ccc(C(F)(F)F)cc2)CC(=O)N1 (stereo not given) , strictly under 40% or not?
# output False

* * *

target: PDGFRA (human); assay: KINOMEscan competition binding; conditions: compound 10.0 µM
measure.name: kinase still bound, per cent of control (%)
One number for each entry, in %.

Please review the following examples before continuing.
compound	measure.name	endpoint.unit	observed.measurement
C=CC(=O)Nc1ccc(C(=O)c2sc(Nc3ccc(N4CCN(C)CC4)cc3OC)nc2N)cc1	kinase still bound, per cent of control	%	100
N#Cc1cc(-c2ccnc(Nc3ccc(-n4cnc(-c5cccnc5)n4)cc3)n2)cc(N2CCOCC2)c1	kinase still bound, per cent of control	%	1.2
COc1cc2c(Nc3ccc(NC(=O)c4ccccc4)cc3)ncnc2cc1OCCCN1CCOCC1	kinase still bound, per cent of control	%	2
COc1cc(C)c(Sc2cnc(NC(=O)c3ccc(CNC(C)C(C)C)cc3)s2)cc1C(=O)N1CCN(C(C)=O)CC1 (configuration not stated)	kinase still bound, per cent of control	%	100
CCN1CCN(Cc2ccc(NC(=O)c3ccc(C)c(/C=C/c4cnc5[nH]ccc5c4OC)c3)cc2C(F)(F)F)CC1	kinase still bound, per cent of control	%	0.15
COc1cc(N2CCC(C(N)=O)CC2)ccc1Nc1nc(N)c(Cl)c(Nc2ccccc2S(=O)(=O)C(C)C)n1	kinase still bound, per cent of control	%	100
CNC(=O)Nc1ccc(-c2nc(N3CC4CCC(C3)O4)c3cnn(C4CCC5(CC4)OCCO5)c3n2)cc1	kinase still bound, per cent of control	%	80
Cc1cn(-c2cc(C(=O)Nc3ccc(C)c(NC(=O)c4ccno4)c3)cc(C(F)(F)F)c2)cn1	kinase still bound, per cent of control	%	1.2

Respectfully, I request kinase still bound, per cent of control for each entry included below.
1. CCc1nc(-c2cccc(C)c2)c(-c2ccnc(NC(=O)c3ccccc3)c2)s1
2. CCN(CCO)CCCOc1ccc2c(Nc3cc(CC(=O)Nc4cccc(F)c4)[nH]n3)ncnc2c1
3. CCOc1cc(N2CCC(O)CC2)ccc1Nc1ncc2c(n1)N(C)c1ccccc1C(=O)N2C
4. N#C/C(=C1/Nc2ccccc2S1)c1ccnc(NCCc2cccnc2)n1

# output
[84, 0, 100, 100]
